Listed here: items and their measured pKi.
Experimental system: recombinant human MC3 receptor (Homo sapiens, UniProt P41968)
Sequence (P41968 whole entry): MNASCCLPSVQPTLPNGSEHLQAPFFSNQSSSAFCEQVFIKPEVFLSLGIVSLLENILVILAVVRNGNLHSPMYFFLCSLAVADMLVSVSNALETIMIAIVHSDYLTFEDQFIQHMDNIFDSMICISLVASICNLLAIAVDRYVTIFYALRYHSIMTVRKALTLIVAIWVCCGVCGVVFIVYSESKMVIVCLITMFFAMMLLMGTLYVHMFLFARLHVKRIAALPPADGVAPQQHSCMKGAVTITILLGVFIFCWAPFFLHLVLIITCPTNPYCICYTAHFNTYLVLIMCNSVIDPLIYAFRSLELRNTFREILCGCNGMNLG
Protocol details: Affinity for the MC3-receptor, displacement of 125I-NDP-MSH in transfected Sf9 or COS cells
Stated conditions: nb = non-binding, i.e. no affinity, read-out: Affinity for MC-receptors, Ki, MC3
Description: Test 2. Affinity for the MC3-Receptors, the MC4-Receptors and the MC5-Receptors Essentially, the affinity of the compounds for the different melanocortin receptors were determined by using either insect cells (Sf9) or COS cells, which were transfected with recombinant human MC3, MC4 or MC5 receptors. For the determination of the affinity for the MC1 receptor, B16 mouse melanoma cells were used, which endogenously express the (mouse) MC1 receptor. […]
pKi: −log10 of the molar value.

# Compound, Experimental system, Reading qualifier, pKi
rows = [
    ("N=C(N)NN=Cc1cccc(Br)c1 [1:21, N-(3-Bromobenzylideneamino)guanidine]", "recombinant human MC3 receptor (Homo sapiens, UniProt P41968)", "=", 4.34),
    ("N=C(N)NN=Cc1cc2c(cc1[N+](=O)[O-])OCO2 [1:17]", "recombinant human MC3 receptor (Homo sapiens, UniProt P41968)", "<", 3.70),
    ("N=C(N)NN=Cc1ccccc1Br [1:14, N-(2-Bromobenzylideneamino)guanidine]", "recombinant human MC3 receptor (Homo sapiens, UniProt P41968)", "=", 4.13),
]

Sourced from patent US20040106683A1
